# System: biotinyl-Met-oxazolone
# Assay comment: self-aminoacylation, catalytic enhancement (BMO) (fold over background); higher = more active; k-Seq, kA / k0A0; sequences stand for … in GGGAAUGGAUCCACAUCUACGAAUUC…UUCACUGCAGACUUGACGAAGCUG
Fewer inactive variants are shown than the library holds.
self-aminoacylation of 7 or higher: class 1. Under 7: class 0.

| Entry sequence | Subject of test | Assigned label |
| --- | --- | --- |
| CCGCAUUUCAAGCAAUCGGUC [Fam1B.1 aminoacylation ribozyme variant] | biotinyl-Met-oxazolone | class 0 |
| AUAACCCUGGUCAUAGAGUGA [Fam2.1 aminoacylation ribozyme variant] | biotinyl-Met-oxazolone | class 1 |
| CUUACCCUGGUCAUCGCGUGA [Fam2.1 aminoacylation ribozyme variant] | biotinyl-Met-oxazolone | class 1 |
| AUUCACCUAGGACAUCGCGUG [Fam2.2 aminoacylation ribozyme variant] | biotinyl-Met-oxazolone | class 0 |
| AAGUUUGCUAGGAGUCGCAAG [Fam3.1 aminoacylation ribozyme variant] | biotinyl-Met-oxazolone | class 0 |
| AUUACUGUGGUCAUCGAGUGA [Fam2.1 aminoacylation ribozyme variant] | biotinyl-Met-oxazolone | class 0 |
| CCACUUCAGACAAUCGGUCUG [Fam1A.1 aminoacylation ribozyme variant] | biotinyl-Met-oxazolone | class 0 |
| AUUAACCUGGGUCAUCGGGUG [Fam2.2 aminoacylation ribozyme variant] | biotinyl-Met-oxazolone | class 1 |
| AUUCACCUAGGUCAGCCGGUG [Fam2.2 aminoacylation ribozyme variant] | biotinyl-Met-oxazolone | class 1 |

----------
# Test system: biotinyl-Met-oxazolone
# Assay comment: self-aminoacylation, catalytic enhancement (BMO) (fold over background); higher = more active; k-Seq, kA / k0A0; sequences stand for … in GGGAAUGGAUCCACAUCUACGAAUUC…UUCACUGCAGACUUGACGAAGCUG
Variants at the floor of the assay were thinned out.
Classes (self-aminoacylation): low class: < 1; middle class: ≥ 1 and < 5; high class: ≥ 5

| Entry sequence | Assigned label |
| --- | --- |
| AUUACCCUGAUCAACGAGUGA [Fam2.1 aminoacylation ribozyme variant] | high class |
| AAGUUUGCUAAUUGUCCCAAG [Fam3.1 aminoacylation ribozyme variant] | middle class |
| AUACACCUAGGUCAUAGGGUG [Fam2.2 aminoacylation ribozyme variant] | middle class |
| AUUCAUCUUGGUCAUCGGGUG [Fam2.2 aminoacylation ribozyme variant] | high class |
| AUUCACCUAUGUCAGCGGGUG [Fam2.2 aminoacylation ribozyme variant] | middle class |
| CUACUUGAAACAAUCGGUUUG [Fam1A.1 aminoacylation ribozyme variant] | low class |
| ACUACCCUGGUCGUCGAGUGA [Fam2.1 aminoacylation ribozyme variant] | middle class |
| CUACUACAAACAAUCGGUCUG [Fam1A.1 aminoacylation ribozyme variant] | low class |
| AUUCACCUACGUGAUCGGGUG [Fam2.2 aminoacylation ribozyme variant] | middle class |
| AAUACCCUGAUCAUCGAGUGA [Fam2.1 aminoacylation ribozyme variant] | high class |
| GUUCACCUAGGUUAUCGGGUG [Fam2.2 aminoacylation ribozyme variant] | middle class |
| AUUGACCUACGUCAUCGGGUG [Fam2.2 aminoacylation ribozyme variant] | middle class |
| CUGCUUCAAACAAUCAGUCUG [Fam1A.1 aminoacylation ribozyme variant] | low class |
| UUUCACCUAGGUCAUCGAGUG [Fam2.2 aminoacylation ribozyme variant] | high class |
| AGUACCCAGGUCAUCGAGUGA [Fam2.1 aminoacylation ribozyme variant] | high class |
| AUUACCCUAGUCACCGAGUGA [Fam2.1 aminoacylation ribozyme variant] | high class |
| AAGUUUGCUAAGAAUCGCAAG [Fam3.1 aminoacylation ribozyme variant] | low class |
| CCACACUUCAAGCAAUCCAUC [Fam1B.1 aminoacylation ribozyme variant] | low class |
| AUUCACCUAGGUGAUUGGGUG [Fam2.2 aminoacylation ribozyme variant] | middle class |
| AUUAACCUAGGUCAUCGGGGG [Fam2.2 aminoacylation ribozyme variant] | middle class |
| CUACUUCAAACCAUCGGACUG [Fam1A.1 aminoacylation ribozyme variant] | low class |
| CUACUUCACACAAUCGAUCUG [Fam1A.1 aminoacylation ribozyme variant] | low class |
| AUUCACCUAGGCCAUCCGGUG [Fam2.2 aminoacylation ribozyme variant] | high class |

----------
# System: biotinyl-Phe-oxazolone
# Assay comment: self-aminoacylation, catalytic enhancement (BFO) (fold over background); higher = more active; k-Seq, kA / k0A0; sequences stand for … in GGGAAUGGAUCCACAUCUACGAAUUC…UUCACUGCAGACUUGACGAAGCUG
Variants at the floor of the assay were thinned out.
Classes (self-aminoacylation): low interval = under 3, middle interval = from 3 up to 10, high interval = 10 and over

| Entry sequence | Assigned label |
| --- | --- |
| AUUACACUGGUCAUCGAGUGU [Fam2.1 aminoacylation ribozyme variant] | low interval |
| AAGUUUGCUAAUAGCGGCAAG [Fam3.1 aminoacylation ribozyme variant] | low interval |
| AUUCACCUAGAUCAUCGCGUG [Fam2.2 aminoacylation ribozyme variant] | high interval |
| CCACACUCCAAGCAAUCGGCC [Fam1B.1 aminoacylation ribozyme variant] | low interval |
| AUUACCGUGGUCAUGGAGUGA [Fam2.1 aminoacylation ribozyme variant] | high interval |
| AAGUUUUCUAAUAGUCGCAAU [Fam3.1 aminoacylation ribozyme variant] | low interval |
| CCACACUUCAAGUAUUCGGUC [Fam1B.1 aminoacylation ribozyme variant] | low interval |
| ACUACCUUGGUCAUCGAGUGA [Fam2.1 aminoacylation ribozyme variant] | high interval |
| CUAAUUCAAACAAUCGGUCUG [Fam1A.1 aminoacylation ribozyme variant] | middle interval |
| UCUACCCUGGUCAUCGAGUGA [Fam2.1 aminoacylation ribozyme variant] | high interval |
| CCAUACUUCAACCAAUCGGUC [Fam1B.1 aminoacylation ribozyme variant] | high interval |
| GUUACCCUGGUCAUCGAGUGC [Fam2.1 aminoacylation ribozyme variant] | high interval |
| CCACGCUUCAAGCAAUCGGUC [Fam1B.1 aminoacylation ribozyme variant] | high interval |
| AUUUACCUAGCUCAUCGGGUG [Fam2.2 aminoacylation ribozyme variant] | middle interval |
| AUUCACCUACGUCAUAGGGUG [Fam2.2 aminoacylation ribozyme variant] | low interval |
| AUUCACCUAGCUCUUCGGGUG [Fam2.2 aminoacylation ribozyme variant] | high interval |
| CCACACUUCCAGCAAUCGCUC [Fam1B.1 aminoacylation ribozyme variant] | low interval |
| AUUCACGUAGGUCAUGGGGUG [Fam2.2 aminoacylation ribozyme variant] | high interval |
| CUACUUCAGACAUUCGGUCUG [Fam1A.1 aminoacylation ribozyme variant] | middle interval |
| AUGACCCUGCUCAUCGAGUGA [Fam2.1 aminoacylation ribozyme variant] | low interval |
| AUUCCCCUGGUCAUCGAGUGA [Fam2.1 aminoacylation ribozyme variant] | high interval |
| AAGCUUGCCAAUAGUCGCAAG [Fam3.1 aminoacylation ribozyme variant] | middle interval |
| UUUCACCUAGGGCAUCGGGUG [Fam2.2 aminoacylation ribozyme variant] | high interval |

----------
// reported self-aminoacylation for each item listed
# Tested on: biotinyl-Phe-oxazolone
# Assay comment: self-aminoacylation, catalytic enhancement (BFO) (fold over background); higher = more active; k-Seq, kA / k0A0; sequences stand for … in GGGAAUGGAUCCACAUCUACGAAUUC…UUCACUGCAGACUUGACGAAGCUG
Variants at the floor of the assay were thinned out.

| Entry sequence | self-aminoacylation |
| --- | --- |
| CAAGUUCAAACAAUCGGUCUG [Fam1A.1 aminoacylation ribozyme variant] | 6.99 |
| CUCCUUCAAACAAUCGCUCUG [Fam1A.1 aminoacylation ribozyme variant] | 2.77 |
| CCACAUUUCAAGCAAUCGGCC [Fam1B.1 aminoacylation ribozyme variant] | 3.98 |
| CCCCACUUCAAGCACUCGGUC [Fam1B.1 aminoacylation ribozyme variant] | 11 |
| AUUCACCUAAGCCAUCGGGUG [Fam2.2 aminoacylation ribozyme variant] | 26.6 |
| GUUACCCUGGUCAUCGAGUGA [Fam2.1 aminoacylation ribozyme variant] | 747 |
| UUUACCCUGGUCAACGAGUGA [Fam2.1 aminoacylation ribozyme variant] | 26.1 |
| GCACACUUCAAGGAAUCGGUC [Fam1B.1 aminoacylation ribozyme variant] | 3.95 |
| CCACACUUCAAGCUAUGGGUC [Fam1B.1 aminoacylation ribozyme variant] | 0.774 |
| AAGUAUGCUAAUAGUCCCAAG [Fam3.1 aminoacylation ribozyme variant] | 3.66 |
| CCACACAUCAAGCAAUCGGCC [Fam1B.1 aminoacylation ribozyme variant] | 4.94 |
| CUACUUCAAACAAUCGGUCGC [Fam1A.1 aminoacylation ribozyme variant] | 46.9 |
| AAUCACCUAGGUCAUUGGGUG [Fam2.2 aminoacylation ribozyme variant] | 13.1 |
| UUUCACCUAGGUCUUCGGGUG [Fam2.2 aminoacylation ribozyme variant] | 29 |
| AUUAACCUAGGUCAUCGUGUG [Fam2.2 aminoacylation ribozyme variant] | 3.17 |
| AUUAACCGAGGUCAUCGGGUG [Fam2.2 aminoacylation ribozyme variant] | 48.9 |
| AAGGUUGCCAAUAGUCGCAAG [Fam3.1 aminoacylation ribozyme variant] | 2.4 |
| CCGCACUUCAAGAAAUCGGUC [Fam1B.1 aminoacylation ribozyme variant] | 12.2 |
| AAGUUUCCUAAUGGUCGCAAG [Fam3.1 aminoacylation ribozyme variant] | 2.62 |
| CUACUUCAUACAACCGGUCUG [Fam1A.1 aminoacylation ribozyme variant] | 0.504 |
| AUUACCCUGGUUAGCGAGUGA [Fam2.1 aminoacylation ribozyme variant] | 22.1 |
| AUUCACCUAGUUCAUCGGGUU [Fam2.2 aminoacylation ribozyme variant] | 5.74 |
| CAACAUCAAACAAUCGGUCUG [Fam1A.1 aminoacylation ribozyme variant] | 7.46 |
| AUGCACCGAGGUCAUCGGGUG [Fam2.2 aminoacylation ribozyme variant] | 40.4 |
| AUUACCCUUGUCAACGAGUGA [Fam2.1 aminoacylation ribozyme variant] | 21.7 |
| AUGACCCUGGGCAUCGAGUGA [Fam2.1 aminoacylation ribozyme variant] | 42.4 |
